Target: Serine/threonine-protein kinase Chk1 (Homo sapiens, UniProt O14757)
Sequence (O14757 whole entry): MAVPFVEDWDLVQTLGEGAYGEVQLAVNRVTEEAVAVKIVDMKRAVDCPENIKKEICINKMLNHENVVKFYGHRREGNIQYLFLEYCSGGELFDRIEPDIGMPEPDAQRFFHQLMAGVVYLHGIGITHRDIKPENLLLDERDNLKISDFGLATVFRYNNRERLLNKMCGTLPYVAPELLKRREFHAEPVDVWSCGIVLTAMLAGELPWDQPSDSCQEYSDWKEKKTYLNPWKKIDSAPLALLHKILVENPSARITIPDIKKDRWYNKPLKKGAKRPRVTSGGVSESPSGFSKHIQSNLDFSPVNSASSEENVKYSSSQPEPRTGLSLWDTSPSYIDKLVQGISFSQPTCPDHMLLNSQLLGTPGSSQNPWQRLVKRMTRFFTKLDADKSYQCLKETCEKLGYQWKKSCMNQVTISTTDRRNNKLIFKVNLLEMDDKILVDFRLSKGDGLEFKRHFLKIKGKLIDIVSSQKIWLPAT
pIC50: −log10 of the molar value.
reported.property: pIC50

The recorded pIC50 for O=C(Nc1ccc(Oc2ncnc3[nH]ncc23)cc1)Nc1ccc(Cl)c(C(F)(F)F)c1 is < 5.00

----------
Biological target: UniProtKB P36888
Test: Inhibition of FLT3 in human MV4-11 cells assessed as inhibition of Erk1/2 phosphorylation after 20 hrs by Western blotting analysis
Format: cell-based
reported.property: IC50
Number first, unit second.

The measured IC50 that O=C(Nc1ccc(Oc2ncnc3[nH]ncc23)cc1)Nc1ccc(Cl)c(C(F)(F)F)c1 showed for UniProtKB P36888 is 1 nM

----------
Molecular target: Serine/threonine-protein kinase/endoribonuclease IRE1 (Homo sapiens)
Sequence (O75460 whole entry): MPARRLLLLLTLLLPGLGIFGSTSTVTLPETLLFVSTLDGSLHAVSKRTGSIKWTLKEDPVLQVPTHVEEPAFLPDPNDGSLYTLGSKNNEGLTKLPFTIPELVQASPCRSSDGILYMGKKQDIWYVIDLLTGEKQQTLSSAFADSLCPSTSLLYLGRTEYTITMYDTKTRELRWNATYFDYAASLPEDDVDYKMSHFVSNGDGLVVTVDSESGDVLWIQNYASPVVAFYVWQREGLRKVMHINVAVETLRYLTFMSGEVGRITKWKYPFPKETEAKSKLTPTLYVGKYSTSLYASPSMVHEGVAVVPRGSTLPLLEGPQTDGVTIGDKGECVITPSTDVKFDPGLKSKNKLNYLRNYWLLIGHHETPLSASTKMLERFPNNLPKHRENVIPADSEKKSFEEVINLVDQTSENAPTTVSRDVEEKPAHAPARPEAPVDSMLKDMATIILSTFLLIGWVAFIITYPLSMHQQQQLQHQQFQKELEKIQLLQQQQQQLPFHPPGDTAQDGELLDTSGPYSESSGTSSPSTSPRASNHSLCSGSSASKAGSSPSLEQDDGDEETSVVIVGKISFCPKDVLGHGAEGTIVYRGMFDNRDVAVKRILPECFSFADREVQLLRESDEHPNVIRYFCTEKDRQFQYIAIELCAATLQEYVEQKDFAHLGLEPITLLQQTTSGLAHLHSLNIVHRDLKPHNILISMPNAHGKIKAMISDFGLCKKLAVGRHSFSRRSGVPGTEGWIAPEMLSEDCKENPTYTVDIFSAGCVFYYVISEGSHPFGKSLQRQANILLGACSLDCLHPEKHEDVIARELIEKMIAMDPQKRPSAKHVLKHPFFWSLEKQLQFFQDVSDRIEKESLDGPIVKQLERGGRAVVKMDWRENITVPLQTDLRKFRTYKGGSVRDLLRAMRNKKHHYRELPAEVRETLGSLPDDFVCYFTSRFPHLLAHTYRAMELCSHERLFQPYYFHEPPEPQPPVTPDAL
reported.property: IC50

The measured IC50 that O=C(Nc1ccc(Oc2ncnc3[nH]ncc23)cc1)Nc1ccc(Cl)c(C(F)(F)F)c1 showed for Serine/threonine-protein kinase/endoribonuclease IRE1 (Homo sapiens) is > 10 µM

----------
Target: Receptor-type tyrosine-protein kinase FLT3 (Homo sapiens)
Sequence (P36888 whole entry): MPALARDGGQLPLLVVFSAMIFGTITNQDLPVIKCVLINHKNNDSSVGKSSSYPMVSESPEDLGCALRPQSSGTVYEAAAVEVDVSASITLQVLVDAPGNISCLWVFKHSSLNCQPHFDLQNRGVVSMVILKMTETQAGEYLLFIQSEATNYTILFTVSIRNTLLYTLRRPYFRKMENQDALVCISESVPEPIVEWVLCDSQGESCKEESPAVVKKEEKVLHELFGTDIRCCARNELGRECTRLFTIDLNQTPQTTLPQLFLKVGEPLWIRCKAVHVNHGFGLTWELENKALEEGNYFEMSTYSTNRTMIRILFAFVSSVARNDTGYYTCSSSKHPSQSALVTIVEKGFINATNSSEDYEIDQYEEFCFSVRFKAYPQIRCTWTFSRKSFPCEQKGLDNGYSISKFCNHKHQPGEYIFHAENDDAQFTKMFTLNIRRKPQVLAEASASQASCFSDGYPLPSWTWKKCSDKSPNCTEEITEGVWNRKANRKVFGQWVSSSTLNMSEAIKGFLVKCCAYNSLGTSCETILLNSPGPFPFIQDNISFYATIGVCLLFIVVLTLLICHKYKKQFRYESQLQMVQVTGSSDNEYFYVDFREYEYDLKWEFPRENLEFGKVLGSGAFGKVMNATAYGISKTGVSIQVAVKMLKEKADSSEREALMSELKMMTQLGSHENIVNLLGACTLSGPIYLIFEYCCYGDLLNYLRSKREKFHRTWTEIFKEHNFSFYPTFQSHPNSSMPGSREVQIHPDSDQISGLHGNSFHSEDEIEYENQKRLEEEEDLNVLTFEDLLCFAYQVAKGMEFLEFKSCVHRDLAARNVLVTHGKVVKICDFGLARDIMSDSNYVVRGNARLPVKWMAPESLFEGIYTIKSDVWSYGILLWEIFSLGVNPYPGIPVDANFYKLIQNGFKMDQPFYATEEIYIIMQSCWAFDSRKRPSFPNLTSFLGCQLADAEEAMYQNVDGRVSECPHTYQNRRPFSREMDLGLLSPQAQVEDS
Experiment: Inhibition of FLT3 in human MV4-11 cells assessed as inhibition of STAT5 phosphorylation after 20 hrs by Western blotting analysis
Format: cell-based
reported.property: IC50 (nM)
Just the number in nM, nothing appended.

The recorded IC50 for O=C(Nc1ccc(Oc2ncnc3[nH]ncc23)cc1)Nc1ccc(Cl)c(C(F)(F)F)c1 is 3

----------
Assay system Vascular endothelial growth factor receptor 2 (Danio rerio); read-out recorded as IC50.

{"compound": "COc1cccc(NC(=O)Nc2ccc(Nc3ncnc4[nH]ncc34)cc2)c1", "system": "Vascular endothelial growth factor receptor 2 (Danio rerio)", "IC50": "> 100 µM"}

The recorded IC50 for COc1cccc(NC(=O)Nc2ccc(Oc3ncnc4c3cnn4C)cc2)c1 is > 100 µM

----------
Target: Vascular endothelial growth factor receptor 2 (Danio rerio)
Sequence (Q5GIT4 whole entry): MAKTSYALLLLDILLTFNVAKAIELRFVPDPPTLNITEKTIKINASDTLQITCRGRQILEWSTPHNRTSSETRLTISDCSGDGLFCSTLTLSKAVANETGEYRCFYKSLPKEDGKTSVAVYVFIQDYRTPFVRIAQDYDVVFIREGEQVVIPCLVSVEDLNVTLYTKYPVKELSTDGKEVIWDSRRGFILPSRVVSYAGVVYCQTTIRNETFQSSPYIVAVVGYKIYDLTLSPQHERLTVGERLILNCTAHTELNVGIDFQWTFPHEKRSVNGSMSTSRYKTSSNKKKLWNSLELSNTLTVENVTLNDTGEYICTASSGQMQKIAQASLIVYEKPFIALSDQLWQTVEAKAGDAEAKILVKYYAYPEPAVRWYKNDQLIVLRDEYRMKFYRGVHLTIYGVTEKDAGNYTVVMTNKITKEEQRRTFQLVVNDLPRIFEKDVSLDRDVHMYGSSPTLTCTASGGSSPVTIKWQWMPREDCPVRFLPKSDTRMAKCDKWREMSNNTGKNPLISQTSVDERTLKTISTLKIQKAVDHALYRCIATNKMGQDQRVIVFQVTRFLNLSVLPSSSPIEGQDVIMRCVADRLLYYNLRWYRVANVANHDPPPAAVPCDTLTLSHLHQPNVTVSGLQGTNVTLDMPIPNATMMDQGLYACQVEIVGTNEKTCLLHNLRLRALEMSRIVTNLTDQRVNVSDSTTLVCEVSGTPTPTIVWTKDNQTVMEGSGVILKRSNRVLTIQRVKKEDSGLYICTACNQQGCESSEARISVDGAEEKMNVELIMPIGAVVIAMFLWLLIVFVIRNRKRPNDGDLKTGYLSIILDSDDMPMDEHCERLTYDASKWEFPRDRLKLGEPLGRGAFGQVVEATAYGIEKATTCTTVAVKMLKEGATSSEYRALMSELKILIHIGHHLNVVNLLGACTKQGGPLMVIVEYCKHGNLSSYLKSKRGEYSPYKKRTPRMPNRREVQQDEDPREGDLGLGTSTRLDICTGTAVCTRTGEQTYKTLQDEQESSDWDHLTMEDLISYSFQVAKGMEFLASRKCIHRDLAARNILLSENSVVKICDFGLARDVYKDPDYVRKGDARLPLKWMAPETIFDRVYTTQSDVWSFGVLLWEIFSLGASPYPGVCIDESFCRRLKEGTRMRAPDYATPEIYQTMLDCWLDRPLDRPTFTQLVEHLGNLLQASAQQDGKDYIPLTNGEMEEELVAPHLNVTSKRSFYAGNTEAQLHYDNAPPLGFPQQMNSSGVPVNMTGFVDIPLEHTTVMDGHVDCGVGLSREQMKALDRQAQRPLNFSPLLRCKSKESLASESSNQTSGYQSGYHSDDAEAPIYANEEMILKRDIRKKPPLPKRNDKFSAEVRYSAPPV
// values below are reported IC50

Worked set:
{"compound": "Cn1ncc2c(Oc3ccc(NC(=O)Nc4ccc(C(F)(F)F)cc4)cc3)ncnc21", "IC50": "> 100 µM"}
{"compound": "O=C(NCC1CCCCC1)Nc1ccc(Oc2ncnc3[nH]ncc23)cc1", "IC50": "> 100 µM"}
{"compound": "CC(NC(=O)Nc1ccc(Oc2ncnc3n[nH]cc23)cc1)c1ccccc1 (centres undefined)", "IC50": "> 98.2 µM"}

Now look at this one.
The measured IC50 that CC(NC(=O)Nc1ccc(Nc2ncnc3[nH]ncc23)cc1)c1ccccc1 (centres undefined) showed for Vascular endothelial growth factor receptor 2 (Danio rerio) is > 100 µM

Value source: ChEMBL document CHEMBL2331331
